Please go through the items and note down their MIC.
# System: A. baumannii ATCC 19606

Reported MIC for Cc1[nH]c(C(=O)Nc2ccc(C(=O)O)cc2N2CCC[C@H](N)C2)c(Cl)c1Cl.Cl [Compound 20c] : what is it? > 32 µg/mL

Same question, Cc1[nH]c(C(=O)Nc2ccc(C(=O)O)cc2N2CCCC(CNC(=O)OC(C)(C)C)C2)c(Cl)c1Cl (centres unmarked) [Compound 18i] this time > 32 µg/mL

Same question, Cc1[nH]c(C(=O)Nc2ccc(-c3n[nH]c(=O)o3)cc2N2CCC[C@H](NC(=O)OC(C)(C)C)C2)c(Cl)c1Cl [Compound 22c] this time > 32 µg/mL

Same question, COC(=O)c1ccc(NC(=O)c2[nH]c(C)c(Cl)c2Cl)c(N2CCC[C@H](N)C2)c1.Cl [Compound 19c] this time 16 µg/mL

Same question, Cc1[nH]c(C(=O)Nc2ccc(C(=O)O)cc2N2CCCC(CN)C2)c(Cl)c1Cl.Cl (centres unmarked) [Compound 20i] this time > 32 µg/mL

Same question, COC(=O)c1ccc(NC(=O)c2[nH]c(C)c(Cl)c2Cl)c(N2CCNCC2)c1.Cl [Compound 19a] this time 16 µg/mL

Same question, Cc1[nH]c(C(=O)Nc2ccc(C(=O)O)cc2N2CCN(C(=O)OC(C)(C)C)CC2)c(Cl)c1Cl [Compound 18a] this time > 32 µg/mL

Same question, COC(=O)c1ccc(NC(=O)c2[nH]c(C)c(Cl)c2Cl)c(N2CCCC(CN)C2)c1.Cl (centres unmarked) [Compound 19i] this time 8 µg/mL

Same question, Cc1[nH]c(C(=O)Nc2ccc(-c3n[nH]c(=O)o3)cc2N2CCC[C@H](N)C2)c(Cl)c1Cl.Cl [Compound 23c] this time 4 µg/mL

Same question, Cc1[nH]c(C(=O)Nc2ccc(C(=O)O)cc2N2CCC[C@H](NC(=O)OC(C)(C)C)C2)c(Cl)c1Cl [Compound 18c] this time > 32 µg/mL

Same question, Cc1[nH]c(C(=O)Nc2ccc(C(=O)O)cc2N2CCNCC2)c(Cl)c1Cl.Cl [Compound 20a] this time > 32 µg/mL

###

Please go through the items and note down their pIC50.
# TESTED_TARGET: E. coli DNA gyrase (Escherichia coli, UniProt P0AES6)
// pIC50 here means minus log10 of the molar concentration (mol/L)

Reported pIC50 for CC(C)(C)OC(=O)N[C@@H]1CCN(c2cc(C(=O)NCC(=O)O)ccc2NC(=O)c2cc(Br)c(Br)[nH]2)C1 [Compound 9c] : what is it? 5.27

Same question, Cc1[nH]c(C(=O)Nc2ccc(C(=O)O)cc2N2CCC[C@H](N)C2)c(Cl)c1Cl.Cl [Compound 20c] this time 6.87

Same question, CC(C)(C)OC(=O)N[C@H]1CCN(c2cc(C(=O)NCC(=O)O)ccc2NC(=O)c2cc(Br)c(Br)[nH]2)C1 [Compound 9b] this time 5.39

Same question, COC(=O)c1ccc(NC(=O)c2[nH]c(C)c(Cl)c2Cl)c(N2CCNCC2)c1.Cl [Compound 19a] this time 7.00

Same question, Cc1[nH]c(C(=O)Nc2ccc(C(=O)O)cc2N2CCCC(CN)C2)c(Cl)c1Cl.Cl (stereo not shown) [Compound 20i] this time 8.20

Same question, Cc1[nH]c(C(=O)Nc2ccc(C(=O)NCC(=O)O)cc2N2CC[C@H](N)C2)c(Cl)c1Cl [Compound 10b] this time 7.71

Same question, Cc1[nH]c(C(=O)Nc2ccc(C(=O)NCC(=O)O)cc2N2CC[C@H](NC(=O)OC(C)(C)C)C2)c(Cl)c1Cl [Compound 8b] this time 6.71

Same question, COC(=O)c1ccc(NC(=O)c2[nH]c(C)c(Cl)c2Cl)c(N2CCC[C@H](N)C2)c1.Cl [Compound 19c] this time 6.92

Same question, Cc1[nH]c(C(=O)Nc2ccc(C(=O)NCC(=O)O)cc2N2CCN(C(=O)OC(C)(C)C)CC2)c(Cl)c1Cl [Compound 8a] this time 7.08

Same question, N[C@@H]1CCN(c2cc(C(=O)NCC(=O)O)ccc2NC(=O)c2cc(Br)c(Br)[nH]2)C1 [Compound 11c] this time 6.00

Same question, Cc1[nH]c(C(=O)Nc2ccc(-c3n[nH]c(=O)o3)cc2N2CCN(C(=O)OC(C)(C)C)CC2)c(Cl)c1Cl [Compound 22a] this time 7.23

Same question, CC(C)(C)OC(=O)N1CCN(c2cc(C(=O)NCC(=O)O)ccc2NC(=O)c2cc(Br)c(Br)[nH]2)CC1 [Compound 9a] this time 6.44

Same question, Cc1[nH]c(C(=O)Nc2ccc(C(=O)NCC(=O)O)cc2N2CC[C@@H](NC(=O)OC(C)(C)C)C2)c(Cl)c1Cl [Compound 8c] this time 6.79

Same question, Cc1[nH]c(C(=O)Nc2ccc(C(=O)NCc3n[nH]c(=O)o3)cc2N2CCN(C(=O)OC(C)(C)C)CC2)c(Cl)c1Cl [Compound 13] this time 6.32

Same question, Cc1[nH]c(C(=O)Nc2ccc(C(=O)O)cc2N2CCN(C(=O)OC(C)(C)C)CC2)c(Cl)c1Cl [Compound 18a] this time 6.80

Same question, COC(=O)c1ccc(NC(=O)c2[nH]c(C)c(Cl)c2Cl)c(N2CCCC(CN)C2)c1.Cl (stereo not shown) [Compound 19i] this time 7.85

Same question, N[C@H]1CCN(c2cc(C(=O)NCC(=O)O)ccc2NC(=O)c2cc(Br)c(Br)[nH]2)C1 [Compound 11b] this time 6.63
